Documented GI50 across a set of compounds
tested on: PC-3; experiment: NCI tumour cell line growth inhibition, 48 h
Activity calls are given as the source filed them. Rule as the data show it: active = GI50 up to about 1.1 µM and inactive = higher.

Some solved entries appear below for comparison.
| Compound | Recorded Measurement |
| --- | --- |
| O=C1N/C(=N/N=C/c2ccccc2)N/C1=C\c1cccs1 | 10 µM (inactive) |
| O=C(c1ccc(/N=C/c2ccccc2O)cc1)c1ccc(/N=C/c2ccccc2O)cc1 | > 100 µM (inactive) |
| Cc1cc2nc3c(C#N)c4c(c(-c5ccc(Cl)cc5)n3c2cc1C)CCC4 | 29.2 µM (inactive) |
| CC1(C)O[C@@H]([C@H](O)CO)[C@H](O)[C@@H](C2SCCCS2)O1 | > 100 µM (inactive) |

Continue with the compound presented below.
Which GI50 is reported for this compound? Cc1cccc(C)c1N1C(=O)C2c3[nH]c4ccccc4c3C3CCC(C(C)(C)C)CC3C2C1=O (stereo not given)
6.44 µM (inactive)

Recorded values, source ChEMBL document CHEMBL1201862.
